tested-target: CYP2D6 (Homo sapiens (Human))
Sequence (P10635 whole entry): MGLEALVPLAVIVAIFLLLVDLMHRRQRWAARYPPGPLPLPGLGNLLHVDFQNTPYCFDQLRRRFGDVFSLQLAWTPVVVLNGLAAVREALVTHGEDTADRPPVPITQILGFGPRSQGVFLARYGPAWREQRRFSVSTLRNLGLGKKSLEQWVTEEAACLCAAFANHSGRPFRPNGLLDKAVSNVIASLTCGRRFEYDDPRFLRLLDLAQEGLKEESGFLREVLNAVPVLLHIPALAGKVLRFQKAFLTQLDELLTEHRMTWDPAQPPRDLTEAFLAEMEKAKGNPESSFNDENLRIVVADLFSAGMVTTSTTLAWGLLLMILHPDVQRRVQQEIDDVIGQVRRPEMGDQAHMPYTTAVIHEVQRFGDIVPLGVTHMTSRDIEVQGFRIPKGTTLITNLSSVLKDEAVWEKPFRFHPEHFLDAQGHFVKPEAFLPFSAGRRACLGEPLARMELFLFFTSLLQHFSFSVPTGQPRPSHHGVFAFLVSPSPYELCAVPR
test-name: CYP inhibition assay, human liver microsomes
stated-conditions: pH 7.4
result-type: inhibition at 10 min, 10 µM (%)
Value expressed in %; do not type the unit.

Measured inhibition at 10 min, 10 µM for this entry CNCCCc1cncc(CCc2cc(C)cc(N)n2)c1 [Compound 14j] on CYP2D6 (Homo sapiens (Human)): 6

----------
tested-target: rat nNOS (Rattus norvegicus (Rat), UniProt P29476)
test-name: Oxyhemoglobin NO assay, Ki (Table 9)
Type: biochemical
stated-conditions: ratio Ki iNOS to Ki rat nNOS
i/n listing for selected molecules.
I'd appreciate a reply containing only the number, no unit.

i/n of CCNCCN(C)c1cc(F)cc(CCc2cc(C)cc(N)n2)c1 [Compound 23b] , assay on rat nNOS (Rattus norvegicus (Rat), UniProt P29476), is 199.4

// molecule Cc1cc(N)nc(CCc2cc(F)cc(NCc3cccc(Cl)c3)c2)c1 [Compound 23f] , assay rat nNOS (Rattus norvegicus (Rat), UniProt P29476), i/n value: 354.1

Test item Cc1cc(N)nc(CCc2cc(C#N)cc(N(C)CCNC(C)C)c2)c1 [Compound 21b] ; rat nNOS (Rattus norvegicus (Rat), UniProt P29476); reported i/n was 361.5

Measured i/n for this entry CCN(CCNC)c1cc(F)cc(CCc2cc(C)cc(N)n2)c1 [Compound 23d] on rat nNOS (Rattus norvegicus (Rat), UniProt P29476): 109.6

rat nNOS (Rattus norvegicus (Rat), UniProt P29476) i/n of Cc1cc(N)nc(CCc2cc(F)cc(NCc3cccnc3)c2)c1 [Compound 23g] is 10.7

Entry CCNCCN(C)c1cc(C#N)cc(CCc2cc(C)cc(N)n2)c1 [Compound 21a] under rat nNOS (Rattus norvegicus (Rat), UniProt P29476) had i/n of 178.0

Observed i/n on rat nNOS (Rattus norvegicus (Rat), UniProt P29476), entry Cc1cc(N)nc(CCc2cccc(NCCN(C)C)c2)c1 [Compound 10b] , equals 29

Tested system rat nNOS (Rattus norvegicus (Rat), UniProt P29476); i/n recorded for Cc1cc(N)nc(CCc2cc(F)cc(N3CCNCC3)c2)c1 [Compound 23h] was 60.2

The molecule Cc1cc(N)nc(CCc2cccc(N(C)CCN)c2)c1 [Compound 10c] , when measured on rat nNOS (Rattus norvegicus (Rat), UniProt P29476), yielded i/n of 47

Response field i/n (rat nNOS (Rattus norvegicus (Rat), UniProt P29476)) for item Cc1cc(N)nc(CCc2cc(F)cc(NC3CCNCC3)c2)c1 [Compound 23i] : 110.9

Sample CNCCN(c1cc(F)cc(CCc2cc(C)cc(N)n2)c1)C1CC1 [Compound 23e] , system: rat nNOS (Rattus norvegicus (Rat), UniProt P29476). Its i/n is 148.7

Tested on rat nNOS (Rattus norvegicus (Rat), UniProt P29476): Cc1cc(N)nc(CCc2cc(F)cc(NCCN(C)C)c2)c1 [Compound 23a] . Observed i/n: 47.3

Tested on rat nNOS (Rattus norvegicus (Rat), UniProt P29476): CNCCN(C)c1cc(CCc2cc(C)cc(N)n2)cc(C(F)(F)F)c1 [Compound 19a] . Observed i/n: 122

Hey, rat nNOS (Rattus norvegicus (Rat), UniProt P29476) data for CNCCN(C)c1cccc(CCc2cc(C)cc(N)n2)c1 [Compound 10a] : i/n came out at 41
